Attribution: patent US8871777B2

- assayed target: PDE6 in bovine retina (Bos taurus, UniProt P11541+P23439)
- Construct: obtained by suitably treating various tissues and separating the enzyme with FPLC; from tissue; host or cells: bovine retina
- Sequence (P11541 2-856 limits assumed): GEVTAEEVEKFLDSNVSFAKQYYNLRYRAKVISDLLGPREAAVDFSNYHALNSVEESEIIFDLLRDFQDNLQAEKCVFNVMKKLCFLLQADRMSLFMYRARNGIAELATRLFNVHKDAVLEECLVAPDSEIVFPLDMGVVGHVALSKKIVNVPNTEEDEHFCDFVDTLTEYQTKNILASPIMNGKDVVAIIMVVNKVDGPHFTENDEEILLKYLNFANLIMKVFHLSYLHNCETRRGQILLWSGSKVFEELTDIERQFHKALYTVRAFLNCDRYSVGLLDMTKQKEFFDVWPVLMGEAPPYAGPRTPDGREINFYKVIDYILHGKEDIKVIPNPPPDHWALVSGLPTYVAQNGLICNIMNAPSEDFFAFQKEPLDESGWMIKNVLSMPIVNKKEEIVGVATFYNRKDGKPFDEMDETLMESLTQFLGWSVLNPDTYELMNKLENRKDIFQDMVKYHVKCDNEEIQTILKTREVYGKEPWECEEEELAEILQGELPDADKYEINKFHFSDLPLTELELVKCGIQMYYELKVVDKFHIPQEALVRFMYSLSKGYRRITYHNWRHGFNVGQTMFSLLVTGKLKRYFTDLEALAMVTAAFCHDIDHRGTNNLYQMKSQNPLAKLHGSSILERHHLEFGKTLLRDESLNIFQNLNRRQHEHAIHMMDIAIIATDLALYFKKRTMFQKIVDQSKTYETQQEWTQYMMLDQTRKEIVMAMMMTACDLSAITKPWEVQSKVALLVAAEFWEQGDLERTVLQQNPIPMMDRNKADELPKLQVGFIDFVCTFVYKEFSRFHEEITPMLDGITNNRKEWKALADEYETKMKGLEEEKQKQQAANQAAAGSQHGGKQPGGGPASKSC
- Sequence (P23439 2-850 limits assumed): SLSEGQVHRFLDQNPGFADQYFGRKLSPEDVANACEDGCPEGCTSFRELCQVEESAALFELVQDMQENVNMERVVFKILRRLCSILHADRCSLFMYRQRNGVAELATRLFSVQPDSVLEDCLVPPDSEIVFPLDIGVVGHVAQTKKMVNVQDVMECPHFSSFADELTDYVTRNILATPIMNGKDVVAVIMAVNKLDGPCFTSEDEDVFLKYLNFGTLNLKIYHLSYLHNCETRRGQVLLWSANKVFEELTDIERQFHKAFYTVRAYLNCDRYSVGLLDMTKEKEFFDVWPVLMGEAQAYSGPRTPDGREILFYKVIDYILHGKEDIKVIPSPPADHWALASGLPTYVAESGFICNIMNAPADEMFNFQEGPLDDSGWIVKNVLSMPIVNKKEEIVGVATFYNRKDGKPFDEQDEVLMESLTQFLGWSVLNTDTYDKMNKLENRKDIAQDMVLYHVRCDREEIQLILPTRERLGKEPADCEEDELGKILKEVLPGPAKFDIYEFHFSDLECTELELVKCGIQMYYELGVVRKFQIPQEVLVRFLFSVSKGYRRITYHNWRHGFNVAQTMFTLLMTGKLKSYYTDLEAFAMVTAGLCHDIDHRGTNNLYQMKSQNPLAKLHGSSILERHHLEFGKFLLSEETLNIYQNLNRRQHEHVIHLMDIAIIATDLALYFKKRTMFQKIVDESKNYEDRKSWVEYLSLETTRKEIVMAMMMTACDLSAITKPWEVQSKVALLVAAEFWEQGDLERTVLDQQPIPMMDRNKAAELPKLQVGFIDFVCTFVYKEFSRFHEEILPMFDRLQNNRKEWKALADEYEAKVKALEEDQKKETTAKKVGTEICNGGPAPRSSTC
- test protocol: PDE6 enzyme inhibition activity test (scintillation proximity)
- Format: biochemical
- applied conditions: PDE6 separated from bovine retina; read-out: PDE6 IC50
pIC50: −log10 of the molar value.
Please enter yes (1) where pIC50 is greater than or equal to 8, and no (0) where it is lower.

compound: CCCOc1ccc(C(=O)NC(Cc2ccccc2)C(=O)OC)cc1-c1nc(CC)c(CC)c(=O)[nH]1 (stereo not drawn)
qualitative label: yes (1)
//
compound: CCCOc1ccc(C(=O)N2CCCC2C(N)=O)cc1-c1nc(CC)c(CC)c(=O)[nH]1 (stereo not drawn)
qualitative label: no (0)
//
compound: CCCOc1ccc(C(=O)N2CCOCC2)cc1-c1nc(C(C)C)c(Br)c(=O)[nH]1
qualitative label: no (0)
//
compound: CCCOc1ccc(N/C(=N/CC)N(CC)CC)cc1-c1nc(CC)c(CC)c(=O)[nH]1
qualitative label: no (0)
//
compound: CCCOc1ccc(S(=O)(=O)N2CCN(CCO)CC2)cc1-c1nc(CC)c(CC)c(=O)[nH]1
qualitative label: no (0)
//
compound: CCCOc1ccc(NC(C)=O)cc1-c1nc(CC)c(CC)c(=O)[nH]1
qualitative label: no (0)
//
compound: CCCOc1ccc(C(=O)N2CCN(CCOCCO)CC2)cc1-c1nc(CC)c(CC)c(=O)[nH]1
qualitative label: no (0)
//
compound: CCCOc1ccc(NC(=O)N2CCCC2)cc1-c1nc(CC)c(CC)c(=O)[nH]1
qualitative label: no (0)
//
compound: CCCOc1ccc(C(=O)NC(C)C(=O)O)cc1-c1nc(CC)c(CC)c(=O)[nH]1 (stereo not drawn)
qualitative label: no (0)
//
compound: CCCOc1ccc(C(=O)N2CCN(C)CC2)cc1-c1nc(CC)c(CC)c(=O)[nH]1
qualitative label: no (0)
//
compound: CCCOc1ccc(NC(N)=O)cc1-c1nc(CC)c(CC)c(=O)[nH]1
qualitative label: no (0)
//
compound: CCCOc1ccc(NC(=O)NCCN(CC)CC)cc1-c1nc(CC)c(CC)c(=O)[nH]1.O=C(O)/C=C\C(=O)O [Example 204, maleate]
qualitative label: no (0)
//
compound: CCCOc1ccc(NC(=O)C2CCCCC2)cc1-c1nc(CC)c(CC)c(=O)[nH]1
qualitative label: no (0)
//
compound: CCCOc1ccc(C(=O)NC(C)CO)cc1-c1nc(CC)c(CC)c(=O)[nH]1 (stereo not drawn)
qualitative label: yes (1)
//
compound: CCCOc1ccc(NC(=O)C2CCCN2C(C)=O)cc1-c1nc(CC)c(CC)c(=O)[nH]1 (stereo not drawn)
qualitative label: yes (1)

---

- assayed target: human blood platelet PDE5 (Homo sapiens, UniProt O76074)
- Construct: obtained by suitably treating various tissues and separating the enzyme with FPLC; from tissue; host or cells: human blood platelets
- test protocol: PDE5 enzyme inhibition activity test (scintillation proximity)
- Format: biochemical
- applied conditions: PDE5 table
Lab note: compare IC50 with 0.9 nM, writing true if less and false if equal or more.

compound: CCCOc1ccc(NC(N)=O)cc1-c1nc(CC)c(CC)c(=O)[nH]1
assayed target: human blood platelet PDE5 (Homo sapiens, UniProt O76074)
qualitative label: false
//
compound: CCCOc1ccc(NC(=O)C(N)=O)cc1-c1nc(CC)c(CC)c(=O)[nH]1
assayed target: human blood platelet PDE5 (Homo sapiens, UniProt O76074)
qualitative label: true
//
compound: CCCOc1ccc(C(=O)NC(CCCNC(=N)N)C(=O)O)cc1-c1nc(CC)c(CC)c(=O)[nH]1 (stereo not shown)
assayed target: human blood platelet PDE5 (Homo sapiens, UniProt O76074)
qualitative label: false
//
compound: CCCOc1ccc(S(=O)(=O)NC2C(O)OC(CO)C(O)C2O)cc1-c1nc(CC)c(CC)c(=O)[nH]1 (stereo not shown)
assayed target: human blood platelet PDE5 (Homo sapiens, UniProt O76074)
qualitative label: false
//
compound: CCCOc1ccc(C(=O)N2CCCC2C(=O)OC)cc1-c1nc(CC)c(CC)c(=O)[nH]1 (stereo not shown)
assayed target: human blood platelet PDE5 (Homo sapiens, UniProt O76074)
qualitative label: true
//
compound: CCCOc1ccc(NC(=S)NCC)cc1-c1nc(CC)c(CC)c(=O)[nH]1
assayed target: human blood platelet PDE5 (Homo sapiens, UniProt O76074)
qualitative label: false
//
compound: CCCOc1ccc(C(=O)NCCS(=O)(=O)N2CCN(C)CC2)cc1-c1nc(CC)c(CC)c(=O)[nH]1
assayed target: human blood platelet PDE5 (Homo sapiens, UniProt O76074)
qualitative label: false
//
compound: CCCOc1ccc(C(=O)NCCCS(=O)(=O)N2CCN(C)CC2)cc1-c1nc(CC)c(CC)c(=O)[nH]1
assayed target: human blood platelet PDE5 (Homo sapiens, UniProt O76074)
qualitative label: true
//
compound: CCCOc1ccc(C(=O)NC(Cc2ccc(O)cc2)C(=O)OC)cc1-c1nc(CC)c(CC)c(=O)[nH]1 (stereo not shown)
assayed target: human blood platelet PDE5 (Homo sapiens, UniProt O76074)
qualitative label: true
//
compound: CCCOc1ccc(C(=O)NCCS(N)(=O)=O)cc1-c1nc(CC)c(CC)c(=O)[nH]1
assayed target: human blood platelet PDE5 (Homo sapiens, UniProt O76074)
qualitative label: true
//
compound: CCCOc1ccc(S(=O)(=O)N(CCO)CCN2CCOCC2)cc1-c1nc(CC)c(CC)c(=O)[nH]1
assayed target: human blood platelet PDE5 (Homo sapiens, UniProt O76074)
qualitative label: false
//
compound: CCCOc1ccc(NS(C)(=O)=O)cc1-c1nc(C(C)C)c(Br)c(=O)[nH]1
assayed target: human blood platelet PDE5 (Homo sapiens, UniProt O76074)
qualitative label: false
//
compound: CCCOc1ccc(N/C(=N/CC)N(CC)CC)cc1-c1nc(CC)c(CC)c(=O)[nH]1
assayed target: human blood platelet PDE5 (Homo sapiens, UniProt O76074)
qualitative label: false
//
compound: CCCOc1ccc(NC(C)=O)cc1-c1nc(CC)c(CC)c(=O)[nH]1
assayed target: human blood platelet PDE5 (Homo sapiens, UniProt O76074)
qualitative label: true
//
compound: CCCOc1ccc(C(=O)N2CCN(C)CC2)cc1-c1nc(CC)c(CC)c(=O)[nH]1
assayed target: human blood platelet PDE5 (Homo sapiens, UniProt O76074)
qualitative label: false
//
compound: CCCOc1ccc(C(=O)NC(C)C(=O)N2CCN(C)CC2)cc1-c1nc(CC)c(CC)c(=O)[nH]1 (stereo not shown)
assayed target: human blood platelet PDE5 (Homo sapiens, UniProt O76074)
qualitative label: true
